- system: T1, HLA-A*02:01 (human)
- T1 construct: MHC class I monomer made peptide-receptive by UV cleavage of a UV-sensitive ligand; also called peptide-receptive MHC molecules
- measurement notes: UV-ligand exchange ELISA (anti-β2m), peptide exchange yield grade
Consider the following binders and their measured peptide exchange yield readings.

{"binder": "SLADRLIGV [peptide SLADRLIGV (SEQ ID NO: 25)]", "peptide exchange yield": "≥ 75%"}
{"binder": "ILHDINSDGVL [peptide ILHDINSDGVL (SEQ ID NO: 85)]", "peptide exchange yield": "20 to 50%"}
{"binder": "KLFDIFSQQV [peptide KLFDIFSQQV (SEQ ID NO: 136)]", "peptide exchange yield": "50 to 75%"}
{"binder": "ALWEKNTHL [peptide ALWEKNTHL (SEQ ID NO: 33)]", "peptide exchange yield": "50 to 75%"}
{"binder": "ALLPRYFFL [peptide ALLPRYFFL (SEQ ID NO: 2)]", "peptide exchange yield": "20 to 50%"}
{"binder": "ALDGDQMEL [peptide ALDGDQMEL (SEQ ID NO: 109)]", "peptide exchange yield": "20 to 50%"}
{"binder": "ALLSQQTHL [peptide ALLSQQTHL (SEQ ID NO: 81)]", "peptide exchange yield": "50 to 75%"}
{"binder": "KVFPGKISV [peptide KVFPGKISV (SEQ ID NO: 86)]", "peptide exchange yield": "20 to 50%"}
